- Target System: human P2X3 (Homo sapiens)
- Sequence (P56373 1-397): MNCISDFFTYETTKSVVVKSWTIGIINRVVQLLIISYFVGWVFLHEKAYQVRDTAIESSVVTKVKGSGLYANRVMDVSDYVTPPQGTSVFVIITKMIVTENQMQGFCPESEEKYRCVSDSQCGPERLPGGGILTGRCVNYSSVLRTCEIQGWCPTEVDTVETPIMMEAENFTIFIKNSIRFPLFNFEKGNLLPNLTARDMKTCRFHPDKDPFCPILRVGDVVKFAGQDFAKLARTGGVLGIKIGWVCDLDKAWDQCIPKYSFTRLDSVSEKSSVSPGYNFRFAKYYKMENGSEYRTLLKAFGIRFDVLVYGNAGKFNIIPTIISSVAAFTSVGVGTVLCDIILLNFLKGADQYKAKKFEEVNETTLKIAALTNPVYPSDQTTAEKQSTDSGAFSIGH
- Assay Protocol: Intracellular Calcium Measurement to Assess Antagonist Affinity (FLIPR, Fluo-4, α,β-meATP agonist)
- Measurement Setup: cells expressing human P2X3; agonist α,β-meATP at EC50; antagonist added 10 min before agonist
Readout Name: IC50 (µM)
Return type: number; implicit unit µM.

Entry Cc1ccc(-c2cc(C(=O)N[C@H](C)c3ccc(C(F)(F)F)nc3)cc3nncn23)cc1 [Example 4.3] has what IC50?
0.2

The measurements presented in this section are drawn from patent US9238647B2.
